# Tested on: Lefty1
# test: Lefty1 binders on small-molecule microarrays, primary screen, biochemical, small-molecule microarray, 635/667 nm fluorescence (AID 1139)
# stated-conditions: small-molecule microarray binding, fluorescence 635/667; higher = more signal
Kind request: treat 0.3 as inclusive, so composite z-score at 0.3 or higher is YES, anything lower is NO.

Before answering, review these 4 worked examples.
* C=C(CCCC)C(=O)CC[C@@H](OC(=O)c1ccccc1-c1ccccc1C(=O)O)c1ccc(OCCO)cc1 | YES
* O=C(NCCN1CCOCC1)C1N=C(c2ccc(OCCCO)cc2)N(c2ccccc2)O1 (configuration not stated) | YES
* CCc1cccc(NC(=O)O[C@H]2[C@H](OC(=O)Nc3ccccc3-c3ccccc3)[C@@H](OC(=O)Nc3ccccc3-c3ccccc3)[C@@H](OC)O[C@@H]2CO)c1 | YES
* CC1(C)[C@@H]2CC(C(O)C3C=CC4C(=O)N(Cc5ccccc5)C(=O)C4N3n3cnnc3)=C[C@H]1C2 (some centres not stated) | YES

Form field: composite z-score at least 0.3? Entry: COCCOC(=O)N1C(=O)[C@@]2(c3cc(C#CCCO)ccc31)[C@H](C(N)=O)[C@H]1C(=O)O[C@H](c3ccccc3)[C@H](c3ccccc3)N1[C@@H]2c1ccc(O)cc1 NO

Form field: composite z-score at least 0.3? Entry: COCC(=C=CC[C@@H](O)c1cccc(OCCO)c1)C[C@@H](O)c1ccccn1 YES

Form field: composite z-score at least 0.3? Entry: COc1ccc([Si](C)(C)[C@@H]2[C@@H](CCO)O[C@]3(C(=O)N(Cc4ccc(N(C=O)c5ccccc5)cc4)c4ccccc43)[C@H]2C)cc1 NO

====

# Tested on: Wnt5a (protein binding on small-molecule microarray)
# test: Wnt5a binders on small-molecule microarray, primary screen, biophysical, 635/667 nm fluorescence (AID 1142);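 further: fluorescence read at 667 nm with signal to noise per printed feature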
# stated-conditions: 635 nm fluorescence, higher = more signal
Kind request: treat 0.02 as inclusive, so composite z-score at 0.02 or higher is Yes, anything lower is No.

• O=C1NC(=O)C2C1C=CC(C(O)c1cc(C(F)(F)F)cc(C(F)(F)F)c1)N2Nc1ccccn1 (centres undefined) = No
• COC(=O)[C@@]1(Cc2ccc(OC)cc2)[C@H]2c3cc(C(=O)N(C)C)n(CCc4ccccn4)c3C[C@H]2CN1C(=O)c1ccccc1 = Yes
• C=CCC(OC(C)=O)[C@@H]1[C@@H](N(Cc2ccc(-c3ccccc3)cc2)C(=O)c2ccc(-c3ccccc3)cc2)c2cc(OCCCO)ccc2N1C(=O)Cc1ccc2ccccc2c1 (some centres undefined) = Yes
• COC(=O)[C@@]1(Cc2ccc(OC)cc2)[C@H]2c3cc(C(=O)N4CCCC4)n(Cc4ccc(O)c(OC)c4)c3C[C@H]2CN1C(=O)c1ccccc1 = Yes
• C=CC[C@]1(C(=O)NCCCOC)N=C(c2ccc(OCCCO)cc2)O[C@H]1c1ccccc1CN=[N+]=[N-] = Yes
• C=C[C@@H](COC(=O)OC(C)(C)C)N(Cc1ccc(OC)cc1)S(=O)(=O)c1ccc(Br)cc1 = Yes
• CC(C)NC(=O)[C@@H]1c2ccccc2C(=O)N(C2Cc3ccccc3C2)[C@H]1c1ccc(CO)cc1 = No
• NC(=O)NCC#Cc1ccc2c(c1)[C@]1(C(=O)N2)[C@H](c2ccccc2OCCO)N2[C@H](c3ccccc3)[C@H](c3ccccc3)OC(=O)[C@H]2[C@@H]1C(=O)Nc1nc2ccccc2s1 = No
• CCOC(=O)[C@H]1C/C=C/C[C@H](C(=O)OCC)C(=O)O[C@H]2[C@@H](OC)O[C@H](CO)[C@@H](OC(=O)c3c(OC)cccc3OC)[C@@H]2OC1=O = Yes
• C=CCNC(=O)[C@@H]1[C@H]2C(=O)O[C@H](c3ccccc3)[C@H](c3ccccc3)N2[C@H](c2ccc(OCCO)cc2)[C@@]12C(=O)Nc1ccc(C#CCC(C(=O)OC)C(=O)OC)cc12 = Yes

Form field: composite z-score at least 0.02? Entry: COc1cc2c(cc1O)C(c1cccs1)N(C)CC2 (centres undefined) No

Form field: composite z-score at least 0.02? Entry: Cc1ccc([C@@H]2C[C@@H](Sc3ccccc3)[C@H](C(=O)O)CN2S(=O)(=O)c2ccc(C)cc2)cc1 Yes

Form field: composite z-score at least 0.02? Entry: CC(C)C(CO)N1C(=O)[C@@H]2C3C(=O)OCCC/C=C\[C@H]3OC23C=CCN(CCN2CCOCC2)C(=O)[C@@H]13 (some centres undefined) Yes

Form field: composite z-score at least 0.02? Entry: COCCOC(=O)N1C(=O)[C@@]2(c3ccccc31)[C@H](c1ccccc1OCCO)N1[C@H](c3ccccc3)[C@H](c3ccccc3)OC(=O)[C@H]1[C@@H]2C(=O)N1CCN(c2ncccn2)CC1 No

====

Recorded z-score, one value per entry.
# test: basal MM1S mitochondrial membrane potential changes, profiling panel, cell-based, JC-1 fluorescence, 24 h, 100 nL compound (AID 1170); further: test concentration not given here
# stated-conditions: higher = more signal
Please give only the number in your answer, with no unit.

// solved cases for z-score follow
* O=C(c1ccccc1)N1C(=O)[C@@]2(Cc3ccccc31)N=C(c1ccc(OCCCO)cc1)O[C@H]2c1ccccc1 | -2.17
* C=CCN1C(=O)[C@]2(O[C@H](CCn3cc([C@H](O)c4ccccc4)nn3)[C@@H]([Si](C)(C)c3ccc(OC)cc3)[C@@H]2C)c2cc(N3CCC3=O)ccc21 | 0.507
* CC1CC/C=C\[C@H]2OC34C=CCN(Cc5ccccc5)C(=O)[C@H]3N(CCCO)C(=O)[C@@H]4C2C(=O)O1 (some centres undefined) | 1.68
* Cc1ccc(S[C@]2(C(=O)O)CC(=O)N(C(C)C)[C@@H]2c2ccc(CO)cc2I)cc1 | -0.56
* COCCOC(=O)N1C(=O)[C@@]2(c3cc(C#Cc4ccc(OC)cc4)ccc31)[C@H](c1ccc(O)cc1)N1[C@H](c3ccccc3)[C@H](c3ccccc3)OC(=O)[C@H]1[C@@H]2C(=O)N1CCc2cc(OC)c(OC)cc2C1 | 0.108
* O=C(NC1CC1)[C@@H]1c2ccccc2C(=O)N(Cc2ccccc2Cl)[C@H]1c1ccc(CO)cc1 | 1.41

Complete the entry with z-score for C=CCOC(=O)[C@@H]1[C@H]2C(=O)O[C@H](c3ccccc3)[C@H](c3ccccc3)N2[C@H](c2ccc(OCCOC(=O)[C@H]3C[C@H]4C(=O)N5CCC[C@H]5C(=O)N4[C@H]3c3ccc(O)cc3)cc2)[C@@]12C(=O)Nc1ccc(I)cc12 -1.27

Complete the entry with z-score for C=C[C@H](CO)NS(=O)(=O)c1ccc(Br)cc1 0.525

Complete the entry with z-score for CCC(CC)C(O)C1C=CC2C(=O)NC(=O)C2N1Nc1ccc(Cl)cc1Cl (centres undefined) -0.246

Complete the entry with z-score for CCOC(=O)C[C@H]1[C@H](OC(=O)c2ccc(C(=O)c3ccccc3)cc2)[C@@H](NC(=O)c2ccc3ccccc3c2)c2cc(OCCCO)ccc2N1C(=O)Cc1ccc(OC)cc1 -0.51

Complete the entry with z-score for CC(C)N1C(=O)[C@@]2(Cc3ccccc31)c1ccccc1C(=O)N(Cc1ccccc1Cl)[C@H]2c1ccc(CO)cc1 -1.76

Complete the entry with z-score for CCOC(=O)C[C@H]1[C@H](OC(=O)c2ccc(C(=O)c3ccccc3)cc2)[C@@H](NC(=O)c2ccccc2)c2cc(OCCCO)ccc2N1C(=O)c1ccc2ccccc2n1 -0.386

Complete the entry with z-score for CCOC(=O)C1=CC[C@@H](c2ccccc2)N(S(=O)(=O)c2ccc(C)cc2)[C@H]1c1ccccc1C -0.271

Complete the entry with z-score for CCCCC(CC)C(O)C1C=CC2C(=O)N(Cc3ccccc3)C(=O)C2N1n1cnnc1 (centres undefined) 0.533

====

# test: S. cerevisiae growth modulation with rapamycin, primary screen, strain BY4716, OD600, 96 h (AID 1091); further: test concentration not given here
# stated-conditions: higher = more signal, called active from +8 up or from −8 down
observation-type: z-score
Please give only the number in your answer, with no unit.

// solved cases for z-score follow
• C=CCC(OC(C)=O)[C@@H]1[C@@H](N(Cc2ccc(-c3ccccc3)cc2)C(=O)c2cccc3ccccc23)c2cc(OCCCO)ccc2N1C(=O)c1ccc(-c2ccccc2)cc1 (some centres undefined) = -0.438
• CC(C)C[C@@H]1NC(=O)[C@@H]2C[C@H](C(=O)NCc3ccc(F)cc3)[C@H](c3cccc(OCCO)c3)N2C1=O = -0.425
• C=CCN1C(=O)[C@@]2(CC=C)N=C(c3ccc(OCCCO)cc3)O[C@H]2c2ccccc21 = 0.764

Complete the entry with z-score for [N-]=[N+]=Nc1ccccc1[C@@H]1OC(c2ccc(OCCCO)cc2)=N[C@]1(CCS(=O)(=O)c1ccccc1)C(N)=O 0.199

====

# test: P. aeruginosa biofilm formation inhibitors, primary screen, strain PAO1, LB-PBS medium, absorbance 600 nm (AID 1176); further: test concentration not given here
# stated-conditions: P. aeruginosa PAO1 growth/biofilm, A600, 12 h; higher = more signal
observation-type: z-score
Please give only the number in your answer, with no unit.

// solved cases for z-score follow
• COc1ccc(CCNC(=O)[C@@]2(C)c3ccccc3C(=O)N(C(C)C)[C@H]2c2ccc(CO)cc2)cc1 = -0.149
• COc1cc2c(cc1OC)CN(C(=O)[C@@H]1[C@H]3C(=O)O[C@H](c4ccccc4)[C@H](c4ccccc4)N3[C@H](c3ccccc3OCCO)[C@@]13C(=O)Nc1ccc(C#CCCO)cc13)CC2 = 2.35
• O=C(c1ccccc1)N1C(=O)[C@]2(COC(c3ccc(OCCCO)cc3)=N2)Cc2ccccc21 = 0.95

Complete the entry with z-score for CC(C)[Si]1(C(C)C)O[C@@H](c2ccccc2)c2cc(-c3ccc(-c4ccc(Cl)c(Cl)c4)o3)nc(-c3ccccc3)c21 0.574

Complete the entry with z-score for CCCC#C[Si](O[C@H](CC)c1cn(Cc2cccc(Cl)c2)nn1)(C(C)C)C(C)C -0.0057

Complete the entry with z-score for C=C(C(=O)CC[C@@H](OC(=O)c1cccnc1)c1ccccc1OCCO)C(C)C 0.613

Complete the entry with z-score for COCCOC(=O)N1C(=O)[C@@]2(c3cc(C#CC4(O)CCCCCC4)ccc31)[C@H](c1ccc(OCCO)cc1)N1[C@H](c3ccccc3)[C@H](c3ccccc3)OC(=O)[C@H]1[C@@H]2C(=O)N1CCN(c2ncccn2)CC1 2.57

Complete the entry with z-score for CCOC(=O)C1=CC[C@@H](c2ccccc2)N(S(=O)(=O)c2ccc(C)cc2)[C@H]1c1ccccc1C -0.377

Complete the entry with z-score for C=C(/C(=C/C[C@H](OC(C)=O)c1ccccc1OCCO)c1cnc2ccccc2c1)C(C)C 2.19

Complete the entry with z-score for COCCOC(=O)N1C(=O)[C@@]2(c3cc(C#Cc4ccc(OC)cc4)ccc31)[C@H](c1ccccc1OCCO)N1[C@H](c3ccccc3)[C@H](c3ccccc3)OC(=O)[C@H]1[C@@H]2C(=O)NC[C@H](O)c1ccccc1 3.27

Complete the entry with z-score for COC(=O)c1c(CC[C@@H](CO)NC(=O)NCCn2cc(C3(O)CCCC3)nn2)oc(C(C)=O)c1C(=O)OC 0.173

Complete the entry with z-score for COC(=O)[C@@]1(Cc2ccc(F)cc2)[C@H]2c3cc(C(=O)N(C)C)n(Cc4ccccc4)c3C[C@H]2CN1C(=O)c1ccccc1 0.976

Complete the entry with z-score for O=C(c1ccccc1)N1C(=O)[C@@]2(Cc3ccccc31)N=C(c1ccc(OCCCO)cc1)O[C@H]2c1ccccc1 0.702

Complete the entry with z-score for O=C1N(Cc2ccccc2)c2ccccc2[C@@H]2OC(c3ccc(OCCCO)cc3)=N[C@]12CCS(=O)(=O)c1ccccc1 1.71
